target: human MASP2 (Homo sapiens (Human), UniProt O00187); assay: Biochemical human MASP2 assay (FRET substrate); conditions: Average IC50; recombinant human MASP2; read-out: human MASP2 IC50
Sequence (O00187 other isoform, or with tags, fused parts or gaps): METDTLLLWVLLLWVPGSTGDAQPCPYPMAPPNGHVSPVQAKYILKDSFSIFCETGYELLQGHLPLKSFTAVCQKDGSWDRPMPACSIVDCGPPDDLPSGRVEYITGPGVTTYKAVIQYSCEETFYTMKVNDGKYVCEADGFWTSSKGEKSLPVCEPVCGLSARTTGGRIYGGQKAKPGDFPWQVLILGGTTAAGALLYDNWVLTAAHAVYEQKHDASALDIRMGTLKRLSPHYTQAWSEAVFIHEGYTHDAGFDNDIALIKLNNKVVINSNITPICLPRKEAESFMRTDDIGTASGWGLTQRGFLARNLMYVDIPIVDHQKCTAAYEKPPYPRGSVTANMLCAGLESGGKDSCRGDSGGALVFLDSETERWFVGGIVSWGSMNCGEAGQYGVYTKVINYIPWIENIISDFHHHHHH
Where a SMILES comes first, the peptide text is derived from it. Bridges are numbered along the chain shown (N, C = ends). [ ]: non-standard residue; d: D form. Oic = O=C(O)[C@@H]1C[C@@H]2CCCC[C@@H]2N1; tBuAla = CC(C)(C)C[C@H](N)C(=O)O; PEG4 = NCCOCCOCCOCCOCCC(=O)O; Pen = CC(C)(S)[C@H](N)C(=O)O; Dap = NC[C@H](N)C(=O)O; Ahx = NCCCCCC(=O)O
READOUT_LABEL: log10 IC50 (log10 of the value in µM)

>  <MOLECULE>
CC[C@H](C)[C@@H]1NC(=O)[C@H](CN)NC(=O)[C@@H](N)CNC(=O)[C@@H]2CCCN2C(=O)[C@H]([C@@H](C)CC)NC(=O)[C@H]2NC(=O)[C@H]([C@@H](C)CC)NC(=O)[C@@H]3C[C@@H]4CCCC[C@@H]4N3C(=O)[C@@H]3CCCN3C(=O)[C@H](CC(C)C)NC(=O)[C@H](CO)NC(=O)[C@H](CCCNC(=N)N)NC(=O)[C@H](CO)NC(=O)[C@H](CSSC2(C)C)NC1=O [Example 86] (H-[Dap][Dap]ICSRSLP[Oic]I[Pen]IP; lactam 1-C; disulfide 4-12)

>  <log10 IC50>
0.00

$$$$
>  <MOLECULE>
CC[C@H](C)[C@@H]1NC(=O)CCCCCNC(=O)[C@H]([C@@H](C)CC)NC(=O)[C@H]2NC(=O)[C@H]([C@@H](C)CC)NC(=O)[C@@H]3CCCN3C(=O)[C@@H]3CCCN3C(=O)[C@H](CC(C)(C)C)NC(=O)[C@H](CO)NC(=O)[C@H](CCCNC(=N)N)NC(=O)[C@H](CO)NC(=O)[C@H](CSSC2(C)C)NC1=O [Example 52] (cyclo([Ahx]ICSRS[tBuAla]PPI[Pen]I); disulfide 3-11)

>  <log10 IC50>
-2.03

$$$$
>  <MOLECULE>
CC[C@H](C)[C@@H]1NC(=O)[C@@H](C)NC(=O)CCCCCNC(=O)CC[C@@H](C(N)=O)NC(=O)[C@@H]2CCCN2C(=O)[C@H]([C@@H](C)CC)NC(=O)[C@H]2NC(=O)[C@H]([C@@H](C)CC)NC(=O)[C@@H]3C[C@@H]4CCCC[C@@H]4N3C(=O)[C@@H]3CCCN3C(=O)[C@H](CC(C)C)NC(=O)[C@H](CO)NC(=O)[C@H](CCCNC(=N)N)NC(=O)[C@H](CO)NC(=O)[C@H](CSSC2(C)C)NC1=O [Example 79] ([Ahx][dA]ICSRSLP[Oic]I[Pen]IPE-NH2; disulfide 4-12; lactam N-15)

>  <log10 IC50>
-1.35

$$$$
>  <MOLECULE>
CC[C@H](C)[C@@H]1NC(=O)CNC(=O)CCOCCOCCOCCOCCNC(=O)[C@H](CC(=O)O)NC(=O)[C@@H]2CCCN2C(=O)[C@H]([C@@H](C)CC)NC(=O)[C@@H]2CSSC[C@H](NC1=O)C(=O)N[C@@H](CO)C(=O)N[C@@H](CCCNC(=N)N)C(=O)N[C@@H](CO)C(=O)N[C@@H](CC(C)C)C(=O)N1CCC[C@H]1C(=O)N1CCC[C@H]1C(=O)N[C@@H]([C@@H](C)CC)C(=O)N2 [Example 14] (cyclo(CIPD[PEG4]GICSRSLPPI); disulfide 1-8)

>  <log10 IC50>
-0.62

$$$$
>  <MOLECULE>
CC[C@H](C)[C@@H]1NC(=O)CN(C)C(=O)CCCCCNC(=O)[C@@H]2CCCN2C(=O)[C@H]([C@@H](C)CC)NC(=O)[C@H]2NC(=O)[C@H]([C@@H](C)CC)NC(=O)[C@@H]3CCCN3C(=O)[C@@H]3CCCN3C(=O)[C@H](CC(C)(C)C)NC(=O)[C@H](CO)NC(=O)[C@H](CCCNC(=N)N)NC(=O)[C@H](CO)NC(=O)[C@H](CSSC2(C)C)NC1=O

>  <log10 IC50>
-1.48

$$$$
